Values were extracted from PubChem BioAssay (NCI).

# Tested on: SF-295 CNS
# protocol details: NCI tumour cell line growth inhibition, 48 h
readout type: TGI (µM)
One number for each entry, in µM.

For the 6 molecules below, give their TGI values.
1. Clc1ccc2c(NCCNC3CCCCC3)ccnc2c1
2. Cc1c2c(nn1-c1ccc(S/N=C3\SCC(=O)CN3Cc3ccccc3)cc1)-c1ccccc1CC2
3. CCN(CC)CCCNc1[nH]ncc2cc3c(nc4ccc(OC)cc43)c(C)c12
4. O=C(Nc1ccc2[nH]c3c(-c4ccccc4)nccc3c2c1)c1ccccc1[N+](=O)[O-]
5. Nc1cccc(C2CCCc3c2[nH]c2ccccc32)c1 (stereo not drawn)
6. Cc1cc(Nc2nc(-c3ccc(F)cc3)nc3ccccc23)n[nH]1

1. 10.3
2. 91.5
3. 25.7
4. 3.7
5. 64.5
6. 21.2

Name the recorded TGI for Nc1cccc(CCN2CCN(CCCc3ccccc3)CC2)c1 .
70

====

# Tested on: MCF7 breast
# protocol details: NCI tumour cell line growth inhibition, 48 h
Field: TGI. Provide a value for each of the compounds that follow.
One number for each entry, in µM.

Examples with their reported TGI follow.
compound | TGI (µM)
CSc1nc(N)cc(Oc2ccc(-c3nc(Nc4cccc(C(F)(F)F)c4)n[nH]3)cc2)n1 | 5.02
NC(=O)C(N)CC12CC3CC(CC(C3)C1)C2 (stereo not given) | 44.9
CN1c2ccc(O)c(O)c2-c2cc(O)cc3c2C1CCC3 (stereo not given) | 41.5

For the 2 compounds below, give their TGI values.
1. COc1cccc2c1C(=O)c1c(O)c3c(c(O)c1C2=O)C[C@@](O)(C(C)=O)C[C@@H]3O[C@H]1C[C@H](N)[C@H](O)[C@H](C)O1
2. CNC(=O)Oc1ccc(C(=S)Nc2ccc(Br)cc2)cc1

2.04
83.4

====

# System: HCT-15 colon
# protocol details: NCI tumour cell line growth inhibition, 48 h
Field: TGI. Provide a value for each of the compounds that follow.

Examples with their reported TGI follow.
compound | TGI
O=C(NCc1ccccc1)c1cc2ccc(O)c(O)c2cn1 | > 100 µM
COC(=O)[C@@]12C(=O)CCC(=O)C1C1C(=CC2C)O[C@@H]2OC3(CCCCC3)O[C@H]12 (stereo not given in full) | > 100 µM
Cc1cc2nc(N3C(=O)/C(=C/c4ccc(Oc5ccccc5)cc4)N=C3c3ccccc3)sc2cc1C | > 100 µM
COc1ccc2cc(C(=O)CCC(=O)O)ccc2c1 | > 100 µM
CCN(CC)c1ccc(/C=N/NC(=O)c2ccc(S(C)(=O)=O)cc2)c(O)c1 | > 100 µM
CC(C)(C)OC(=O)NC(Cc1ccc(OCc2ccccc2)cn1)C(=O)N1CCCC1 (stereo not given) | > 100 µM
C=C1CCC(OC(C)=O)C2(C)C(OC(C)=O)CC3OC3(C)C2C(OC(C)=O)C2C(C)C(=O)OC2C1Cl (stereo not given) | > 100 µM
C[C@]12CCC3c4ccc(O)cc4CC[C@H]3C1CC(=O)NC2=O (stereo not given in full) | > 10 µM
O=c1oc2ccc(Br)cc2c(=O)n1-c1ccc(Br)cc1F | 7.02 µM

Name the recorded TGI for Cn1cc(-c2nonc2-c2cn(C)c3ccc(F)cc23)c2ccccc21 .
> 100 µM

====

# System: SNB-19 CNS
# protocol details: NCI tumour cell line growth inhibition, 48 h; in the data active = GI50 below about 0.43 µM; inactive = the rest
Assign a class; possible classes are active, inactive

Solved cases below.
compound | category
CSc1nc(N)cc(Oc2ccc(-c3nc(Nc4cccc(C(F)(F)F)c4)n[nH]3)cc2)n1 | inactive
Cc1ncc(C(=O)Nc2ccc(CN3CCN(C)CC3)c(C(F)(F)F)c2)cc1C#Cc1c(N)ncc2ccc(F)cc12 | inactive
CC(=O)OCc1cnc2c3c(nc4ccccc4c13)C(=O)c1cccnc1-2 | active
COc1cccc(/C(COc2ccc3c(c2)oc(=O)c2ccccc23)=N\O)c1 | inactive
Oc1c(I)cc(I)cc1CNCCN(Cc1ccccn1)Cc1ccccn1 | inactive

What did this assay record as the result for C=CCNCCN1C(=O)c2ccc3c4c(ccc(c24)C1=O)C(=O)N(CCNCC=C)C3=O ?
inactive

What did this assay record as the result for CCCCCCCCCC(CCCC(O)CC(=O)O)OC1OC(COC2OC(C)C(O)C(O)C2O)C(O)C(O)C1OC1OC(CO)C(O)C(O)C1OC1OC(C)C(OC(=O)CC(C)C)C(O)C1O (stereo not given) ?
inactive

What did this assay record as the result for CN1CCN(c2ccc3[nH]c(C4=C(O)c5nc(CCl)n(C)c5C(=O)C4=O)nc3n2)CC1 ?
inactive

What did this assay record as the result for Cn1cc(-c2nonc2-c2cn(C)c3ccc(F)cc23)c2ccccc21 ?
inactive

What did this assay record as the result for CCN(CC)c1ccc(/C=N/NC(=O)c2ccc(S(C)(=O)=O)cc2)c(O)c1 ?
inactive

====

Field: TGI. Provide a value for each of the compounds that follow.
# Tested on: SK-OV-3 ovarian
# protocol details: NCI tumour cell line growth inhibition, 48 h

Examples with their reported TGI follow.
compound | TGI
O=C1C=CC=C[C@@H]2C(C3OCCO3)CC[C@H]12.[C-]#[O+].[C-]#[O+].[C-]#[O+].[Fe] (some centres undefined) | > 100 µM
CCCCCCCCCCCCCCCCCCOP1(=O)OCCO1 | > 100 µM
COc1ccc(C2SC(N)=Nc3c2c(C)nn3C(=O)c2ccccc2O)cc1 (centres undefined) | > 10 µM
COC(=O)CN1Cc2cc(C)cc(c2O)CN(CC(=O)OC)Cc2cc(C)cc(c2O)CN(CC(=O)OC)Cc2cc(C)cc(c2O)C1 | > 100 µM
CCN(CC)c1ccc(/C=N/NC(=O)c2ccc(S(C)(=O)=O)cc2)c(O)c1 | 57.8 µM
CC(=O)OC1CC(OC2C(O)CC(OC3C(O)CC(OC4CCC5(C)C(CCC6C5CCC5(C)C(C7=CC(=O)OC7)C(O)CC65O)C4)OC3C)OC2C)OC(C)C1OC1OC(CO)C(O)C(O)C1O (centres undefined) | 2.1 µM
O=[N+]([O-])/C(C(Cl)=C(Cl)Cl)=C1\NCCS1 | > 100 µM
CC(OC(C)(C)C)[C@H](NC(=O)OCc1ccccc1)C(=O)NC(OCc1ccccc1)[C@H]1COC(C)(C)O1 (some centres undefined) | > 10 µM

For the 7 compounds below, give their TGI values.
1. [C-]#[O+].[C-]#[O+].[C-]#[O+].[C-]#[O+].[O-]C(c1ccccc1[PH+]1OC(C(F)(F)F)(C(F)(F)F)c2ccccc21)(C(F)(F)F)C(F)(F)F.[Re] (centres undefined)
2. COc1ccccc1-c1cc(=O)c2c(C)ccnc2[nH]1
3. COc1cc(C2CC(c3cccc(Nc4ccnc5cc(Cl)ccc45)c3)=NN2C=O)cc(OC)c1OC (centres undefined)
4. Brc1ccc(-c2[nH]c3ccccc3c2N=Nc2ccccc2)cc1
5. Nc1cccc(CCN2CCN(CCCc3ccccc3)CC2)c1
6. CN(C(=O)Nc1ccc(Cl)c(Cl)c1)C1CCCC[C@@H]1N1CCCC1 (some centres undefined)
7. O=C1Nc2ccccc2C12CCCC2

["30.2 µM", "> 100 µM", "4.14 µM", "33 µM", "> 100 µM", "> 100 µM", "> 100 µM"]

====

Field: TGI. Provide a value for each of the compounds that follow.
# Tested on: EKVX NSCLC
# protocol details: NCI tumour cell line growth inhibition, 48 h

compound | TGI
O=C1OC(c2ccccc2)=N/C1=C\c1ccc(Cl)cc1 | > 100 µM

For the 6 compounds below, give their TGI values.
1. CC(C)(C)c1ccc(S(=O)(=O)N2C(c3cccc(C4CC[C@@H](C(=O)O)N4S(=O)(=O)c4ccc(C(C)(C)C)cc4)c3)CC[C@H]2C(=O)O)cc1 (some centres undefined)
2. C#C[C@]1(O)CCC2C3CCc4cc(Oc5nc(F)nc(-n6c(C)nc7cc8ccccc8cc76)n5)ccc4C3CCC21C (some centres undefined)
3. CCOC(=O)Nc1cc(NC(/C=N/NC(C)=O)C(=O)OCC)c(OC)cc1NC(C)=O (centres undefined)
4. CCN1C(C)(C)CC(Oc2ccc(C(=O)Nc3ccc(NC(=O)Nc4cc(C(C)(C)C)on4)cc3)nc2)CC1(C)C
5. c1cc2ccc3cc4ncccc4c4ccc(c1)c2c34
6. COC1=CC(=O)[C@]2(C)[C@H](C1=O)C(C)[C@H]2c1ccc(OC)cc1 (some centres undefined)

1. > 100 µM
2. > 100 µM
3. > 100 µM
4. 20.9 µM
5. > 100 µM
6. > 100 µM

For the 2 compounds below, give their TGI values.
1. COc1cccc2c(=O)c3c(n(C)c12)OC(C(C)C)C3 (centres undefined)
2. COc1cc(C2S/C(=C/c3ccccc3)C(=O)N2c2cccc(Cl)c2)cc(OC)c1OC (centres undefined)

1: > 100 µM; 2: > 100 µM
